- test summary: qHTS RealTime-Glo MT Cell Viability Assay in HEK293 cells - 40 hour (AID 1224874); also: % is scaled to controls: 0 for no effect and ±100 for the full control effect; nearly all actives have a fitted effect of over 50% in size
- particulars: RealTime-Glo luminescence; hits give low values
Records with an inconclusive call do not appear.
max response reference
quantity measured: max response (%)

INSERT INTO measurements (structure, quantity_measured, reported_measurement) VALUES
  ('ClC(Cl)=C(Cl)Cl', 'max response', 0.0111),
  ('CCCCCCCCCCBr', 'max response', -10.6),
  ('C=CC(=O)N(C)C', 'max response', -0.539),
  ('COP(=O)(CCC(=O)NCO)OC', 'max response', 14),
  ('O=[N+]([O-])c1c2ccccc2cc2ccccc12', 'max response', 1.8),
  ('CC(C)CCCCCOC(=O)c1ccccc1C(=O)OCCCCCC(C)C', 'max response', -3.2),
  ('COCC(=O)N(c1c(C)cccc1C)[C@H](C)C(=O)OC', 'max response', -0.139),
  ('N#CNC#N', 'max response', 1.5),
  ('CC(=O)c1cc(C(C)(C)C)cc2c1CCC2(C)C', 'max response', -21.2),
  ('CCCN(CCC)CCc1c[nH]c2ccccc12', 'max response', -15.2),
  ('N#Cc1ccccc1Cl', 'max response', -1.15),
  ('CCc1ccccc1C', 'max response', 0.859),
  ('CC(=O)Nc1ccc2c(c1)Cc1ccccc1-2', 'max response', -12.3),
  ('c1ccc2c(c1)[nH]c1cnccc12', 'max response', 0.679),
  ('CCOCCOC(C)=O', 'max response', 4.22);
